# Method Description: Fluorescence complexation studies of receptors with urea
# Type: binding
# Measurement Setup: in water, fluorescence quenching; read-out: Kd with urea
Measurement Name: pKd
Kindly note that pKd refers to -log10 of the concentration in mol/L and answer with the value alone.

Task: pKd for Nc1cccc(-c2ccc3c(n2)-c2nc4nc5c(cc4cc2CC3)CCc2ccc(C(=O)O)nc2-5)n1 [Compound IC] ?
Output: 1.89
